# Tested on: 485368-065-R3-J5-PDC spheroids with HUVEC/MSC, viability;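 further: spheroids exposed to agents for seven days before readout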
# assay.summary: Anticancer human tumor 485368-065-R3-J5-PDC patient-derived pancreatic carcinoma cell line growth inhibition [RAS]; active means viability on the fitted dose curve at most 10% of control; inactive means the rest
# test.context: second compound 1 µM; first compound 0.03 µM
Allowed answers: active, inactive

Record excerpt, results attached:
>>> assigned_category("CCc1c2c(nc3ccc(O)cc13)-c1cc3c(c(=O)n1C2)COC(=O)[C@]3(O)CC + C#Cc1c(F)ccc2cc(O)cc(-c3ncc4c(N5CC6CCC(C5)N6)nc(OCC56CCCN5CC(F)C6)nc4c3F)c12")
"active"
>>> assigned_category("CCc1c2c(nc3ccc(O)cc13)-c1cc3c(c(=O)n1C2)COC(=O)[C@]3(O)CC + C=CC(=O)N1CCN(c2nc(OCC3CCCN3C)nc3c(F)c(-c4nc(N)cc(C)c4C(F)(F)F)c(Cl)cc23)C(C)C1")
"active"

Hi, do you know how CC1(C)CCC(Nc2ncc(C(F)(F)F)c(-c3c[nH]c4c(P(C)(C)=O)c(C#N)ccc34)n2)CN1 (centres undefined) + C=CC(=O)N1CCN(c2nc(OCC3CCCN3C)nc3c(F)c(-c4nc(N)cc(C)c4C(F)(F)F)c(Cl)cc23)C(C)C1 came out in this test?
inactive

Hi, do you know how CC1(C)CCC(Nc2ncc(C(F)(F)F)c(-c3c[nH]c4c(P(C)(C)=O)c(C#N)ccc34)n2)CN1 (centres undefined) + C#Cc1c(F)ccc2cc(O)cc(-c3ncc4c(N5CC6CCC(C5)N6)nc(OCC56CCCN5CC(F)C6)nc4c3F)c12 came out in this test?
inactive
